System: DeltatarO mutant
assay-protocol: S. aureus survival, RN4220 and DeltatarO strains – OD600, teichoic acid synthesis inhibitors, primary screen (AID 463173)
experimental-parameters: S. aureus RN4220 wild type/DeltatarO growth, OD600, 18 h, active compounds read low, screened at 18.75 µg/mL (by protocol)
In all, about 52,000 compounds went through this assay and about 4,300 (8.3%) were called active. For the sample, actives were picked, then their nearest neighbours and some compounds at random.
The entries below come with measured survival values attached.
Write it as a number; the unit % goes unstated.

Some solved cases for reference:
IN: I would be grateful if you could share the reported survival for COC(=O)c1ccc(-n2c(CCC(=O)O)ccc2-c2ccc(C)cc2)cc1 .
OUT: 49

IN: Then N#Cc1ccc(NC2=NS(=O)(=O)c3ccccc32)cc1 ?
OUT: 68

IN: Then COC(=O)c1cccc(NC(=O)C2CCN(S(=O)(=O)Cc3ccccc3)CC2)c1C ?
OUT: 77

IN: Then CCc1ccc(-n2c(CCC(=O)O)ccc2-c2ccc(F)cc2)cc1 ?
OUT: 29

IN: Then O=C1CCCc2cc(S(=O)(=O)NCC3CCC(C(=O)Nc4ccccc4F)CC3)ccc2N1 (configuration not stated) ?
OUT: 93

Next, consider the following molecule.
IN: I would be grateful if you could share the reported survival for COc1cc(CNCCSc2nnnn2C)ccc1OCc1ccccc1 .
OUT: 73
